Overview of recorded EAD, number of observations/total well numbers for various compounds
- Test system: hiPSC-CMs (iCell-Cardiomyocytes^2)
- Assay context: 1 µM, 72h

Data request: Note EAD, number of observations/total well numbers for the compound shown: CC(C)(Sc1cc(C(C)(C)C)c(O)c(C(C)(C)C)c1)Sc1cc(C(C)(C)C)c(O)c(C(C)(C)C)c1 [Probucol]
Data returned: 0/4

Data request: Note EAD, number of observations/total well numbers for the compound shown: COc1cc2c(Nc3ccc(Br)cc3F)ncnc2cc1OCC1CCN(C)CC1 [Vandetanib]
Data returned: 0/5

Data request: Note EAD, number of observations/total well numbers for the compound shown: Cc1cn(-c2cc(NC(=O)c3ccc(C)c(Nc4nccc(-c5cccnc5)n4)c3)cc(C(F)(F)F)c2)cn1 [Nilotinib]
Data returned: 1/5

Data request: Note EAD, number of observations/total well numbers for the compound shown: COc1nc(N)nc2c1ncn2[C@@H]1O[C@H](COP(=O)(N[C@@H](C)C(=O)OCC(C)(C)C)Oc2cccc3ccccc23)[C@@H](O)[C@@]1(C)O (stereo partly shown) [BMS-986094]
Data returned: 0/5

Data request: Note EAD, number of observations/total well numbers for the compound shown: N=C(N)c1ccc(OCCCCCOc2ccc(C(=N)N)cc2)cc1 [Pentamidine]
Data returned: 0/6

Data request: Note EAD, number of observations/total well numbers for the compound shown: COc1cccc2c1C(=O)c1c(O)c3c(c(O)c1C2=O)C[C@@](O)(C(=O)CO)C[C@@H]3O[C@H]1C[C@H](N)[C@H](O)[C@H](C)O1 [Doxorubicin]
Data returned: 0/5

Data request: Note EAD, number of observations/total well numbers for the compound shown: C#Cc1cccc(Nc2ncnc3cc(OCCOC)c(OCCOC)cc23)c1 [Erlotinib]
Data returned: 0/5
